System name: T1, Tau peptide Start 413 Stop 432
T1 peptide: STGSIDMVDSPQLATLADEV
Protocol summary: Pepscan ELISA on an array of linear 20-mer Tau 441 peptides
Parameters: unit not given here
Readout type: peptide ELISA signal (no name or unit printed)
# output: bare number, no unit

Sample records with peptide ELISA signal (no name or unit printed):
hTau60 monoclonal antibody (recombinant, mouse IgG2a/kappa) (antibody, V domains shown, also called hTau60 (PT1B469)) VH: EVQLQQSGPELVKPGTSVKISCKVFGYTFTDYYMNWVKQSHGKSLEWIGDINPDNGETTYNQKFKGKATLTVDKSSSTAYMELRSLTSEDSAVYYCAKGATFVYWGQGTLVTVSA VL: DVVMTQTPLSLPVSLGDQASISCISSQSLVHSTGTTFLHWFLQKPGQSPKLLIYKVSNRFSGVPDRFSGSGSGTDFTLKISRVEAEDLGFYFCSQSTYFPLTFGSGTKLEIKR    46
PT81 monoclonal antibody (recombinant, mouse IgG2a/kappa) (antibody, V domains shown) VH: QVQLQQPGAELVRPGASVILSCKASGYTFTNSWIHWVKQRPGRVLEWIGRIDPNSGGTRYNENFKSKATLTVDKPSSTAYMQLSSLTSEDSAVYFCSRGVLHDYWGQGTTLTVSS VL: DIVITQDELSNPVTSGESVSISCRSSKSLLYKDGKTYLNWFLQRPGQSPQLLIYLMSTRASGVSDRFSVSGSGTDFTLEISRVQAEDVGVYYCQQLVEYPYTFGGGTKLEIKR    30
PT53 monoclonal antibody (recombinant, mouse IgG2a/kappa) (antibody, V domains shown, also called PT50/PT53) VH: EVKLMESGGGLVQPGASLRLSCAASGFTFTDYYMSWVRQPPGKAPEWLALIRNKANGYTTKYAASVKGRFTISRDNSQNILYLQMNTLRAEDSATYYCVKAVWFAYWGQGTLVTVSA VL: DIVITQDELSNPVTSGESVSISCRSSKSLLYKDGKTYLNWFLQRPGQSPQLLIYLMSTRASGVSDRFSGSGSGTDFTLEISRVKAEDVGVYYCLQLVEYPYTFGGGTKLEIKR    38

For reference, reported peptide ELISA signal (no name or unit printed) for PT66 monoclonal antibody (recombinant, mouse IgG2a/kappa) (antibody, V domains shown, also called PT66 (PT1B545)) VH: QVQLQQPGAELVKPGASVKMSCKASGYTFTSYWITWVKQRPGQGLEWIGDIHPGRGSTKSNEKFKSKATLTVDTSSSTAYMQFSSLTSEDSAVYYCARRWGFDYWGQGTTLTVSS VL: DIVITQDELSNPVTSGESVSISCRSSKSLLYKDGKTYLNWFLQRPGQSPQLLIYLMSTRASGVSDRFSGSGSGTDFTLEISRVKAEDVGVYYCQQLVDYPLTFGAGTKLELKR stands at 2520

Record PT69 monoclonal antibody (recombinant, mouse IgG2a/kappa) (antibody, V domains shown, also called PT69/PT87; PT69 (PT1B548)) VH: QVQLQQPGAELVKPGASVKMSCKASGYTFTNYWITWVKQRPGQGLEWIGDIYPGSGRTKSNEKFKNKATLTADTSSSTAYMQLSSLTSEDSAVYYCTRRWGLDYWGQGTTLTVSS VL: DIVITQDELSNPVTSGESVSISCRSNKSLLYKDGKTYLNWFLQRPGQSPQLLIYLMSTRASGVSDRFSGSGSGTDFTLEISRVKAEDVGVYYCQQLVDYPLTFGAGTKLELKR , field peptide ELISA signal (no name or unit printed): 1380
